Ref: ChEMBL document CHEMBL1201862

test system: SR; test: NCI tumour cell line growth inhibition, 48 h
Activity calls are given as the source filed them. No stated cut-off is given here; in the data, active = GI50 up to about 1.1 µM and inactive = higher.
I'd be grateful if you could share measured GI50 for these entries.

Dear colleague, I am looking for the recorded GI50 of the following compound: `O=c1ccn([C@@H]2C[C@@H]2CO)c(=O)[nH]1`
> 100 µM (inactive)

Endpoint output: GI50 of CCOC12OC3=C(CC1CC1=C(CCC1=O)O2)C(=O)CC3 (stereo not given) . Value?
> 100 µM (inactive)

Would you mind telling me what GI50 value was observed for `Cc1ccc(S(=O)(=O)N2CCN(CCO)CCN(S(=O)(=O)c3ccc(C)cc3)CCN(CCO)CC2)cc1` ?
12.3 µM (inactive)

Recorded GI50 for COC(=O)C(Cc1nc2ccc(Cl)cc2nc1O)/C(=N/O)C(=O)Nc1cccc(Cl)c1C (stereo not given) , please?
> 100 µM (inactive)

Any idea what its GI50 is? The compound is `CCc1n[nH]c(=O)n1CCCCCCCCn1c(CC)n[nH]c1=O`
> 100 µM (inactive)
